target: ERR1 (also known as ERR-α or ERR-1) (Homo sapiens); assay: TR-FRET assay (disruption of co-activator peptide binding to ERR1 LBD); conditions: 6 nM 6His-ERR1LBD, 6 nM GST-SRC-2 peptide; average of 3 independent experiments
property-label: EC50 (nM)

For orientation, consider the following solved cases.
CN(CCN1C(=O)S/C(=C\c2ccc3c(cnn3Cc3ccc(Cl)cc3C(F)(F)F)c2)C1=O)S(=O)(=O)c1ccc(C(F)(F)F)cc1 : 460
O=C(O)CCCN1C(=O)S/C(=C\c2ccc3c(cnn3Cc3ccc(Cl)cc3C(F)(F)F)c2)C1=O : 47
O=C1S/C(=C\c2ccc3c(cnn3Cc3ccc(C(F)(F)F)cc3C(F)(F)F)c2)C(=O)N1[C@@H]1CNCC[C@H]1O (relative stereo) : 34

(a) O=C1CCNCC1N1C(=O)S/C(=C\c2ccc3c(cnn3Cc3ccc(Cl)cc3C(F)(F)F)c2)C1=O (stereo not shown)
(b) O=C1S/C(=C\c2ccc3c(ccn3Cc3ccc(Cl)cc3C(F)(F)F)c2)C(=O)N1C[C@H]1COCCN1
Look at a and b . Which one has the lower recorded EC50 number? Returns: label corresponding to the selected item. a

(1) NS(=O)(=O)CN1C(=O)S/C(=C\c2ccc3c(cnn3Cc3ccc(Cl)cc3C(F)(F)F)c2)C1=O
(2) O=C(O)c1ccc(CN2C(=O)S/C(=C\c3ccc4c(cnn4Cc4ccc(Cl)cc4C(F)(F)F)c3)C2=O)cc1
Field: entry with larger EC50 (options 1 / 2 ). Returns: label corresponding to the selected item. 2

----------
target: UniProtKB P11474; experiment: TR-FRET assay (disruption of co-activator peptide binding to ERR1 LBD); settings: 6 nM 6His-ERR1LBD, 6 nM GST-SRC-2 peptide; average of 3 independent experiments
property-label: EC50 (nM)

O=C1S/C(=C\c2ccc3c(cnn3Cc3ccc(Cl)cc3C(F)(F)F)c2)C(=O)N1C[C@@H]1C[C@@H](F)CN1 [Compound 184] : 140
O=C1S/C(=C\c2ccc3c(cnn3Cc3ccc(Cl)cc3C(F)(F)F)c2)C(=O)N1[C@@H]1CCNC[C@H]1F (relative stereo) [Compound 273] : 34
O=C1S/C(=C\c2ccc3c(cnn3Cc3ccc(C(F)(F)F)cc3C(F)(F)F)c2)C(=O)N1C[C@H]1COCCN1 [Compound 196] : 50

(a) NC(=O)CN1CCC[C@@H]1CN1C(=O)S/C(=C\c2ccc3c(cnn3Cc3ccc(Cl)cc3C(F)(F)F)c2)C1=O [Compound 298]
(b) C[C@H](N)CN1C(=O)S/C(=C\c2ccc3c(cnn3Cc3ccc(Cl)cc3C(F)(F)F)c2)C1=O [Compound 155]
Look at a and b . Which one has the lower recorded EC50 number? Returns: label corresponding to the selected item. b
(b: 24 nM, a: 49 nM)

(A) Cn1cnc(CC(C(=O)O)N2C(=O)S/C(=C\c3ccc4c(cnn4Cc4ccc(Cl)cc4C(F)(F)F)c3)C2=O)c1 (centres unmarked) [Compound 223]
(B) CC(=O)NS(=O)(=O)CN1C(=O)S/C(=C\c2ccc3c(cnn3Cc3ccc(Cl)cc3C(F)(F)F)c2)C1=O [Compound 166]
Look at A and B . Which one has the lower recorded EC50 number? Returns: label corresponding to the selected item. B

----------
Biological target: ERR1 (also known as ERR-α or ERR-1) (Homo sapiens)
Sequence (P11474 193-421 limits assumed): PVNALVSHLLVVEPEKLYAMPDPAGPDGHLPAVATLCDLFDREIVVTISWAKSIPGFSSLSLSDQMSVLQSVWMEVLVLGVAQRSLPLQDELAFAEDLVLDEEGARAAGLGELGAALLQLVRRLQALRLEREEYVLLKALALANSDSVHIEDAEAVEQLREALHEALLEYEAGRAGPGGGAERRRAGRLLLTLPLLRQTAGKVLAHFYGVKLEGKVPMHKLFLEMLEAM
Experiment: TR-FRET assay (disruption of co-activator peptide binding to ERR1 LBD)
Settings: 6 nM 6His-ERR1LBD, 6 nM GST-SRC-2 peptide; average of 3 independent experiments
property-label: EC50 (nM)

For orientation, consider the following solved cases.
O=C1S/C(=C\c2ccc3c(cnn3Cc3ccc(Cl)cc3C(F)(F)F)c2)C(=O)N1CC1(F)CCNCC1 : 26
COC1CCN(S(=O)(=O)NC(=O)CN2C(=O)S/C(=C\c3ccc4c(cnn4Cc4ccc(Cl)cc4C(F)(F)F)c3)C2=O)CC1 : 44
CN(CCN1C(=O)S/C(=C\c2ccc3c(cnn3Cc3ccc(Cl)cc3C(F)(F)F)c2)C1=O)S(=O)(=O)N1CCCC1 : 112
CC(=O)NN1C(=O)S/C(=C\c2ccc3c(cnn3Cc3ccc(Cl)cc3C(F)(F)F)c2)C1=O : 14
CN1C2CCC1CC(N1C(=O)S/C(=C\c3ccc4c(cnn4Cc4ccc(Cl)cc4C(F)(F)F)c3)C1=O)C2 (stereo not shown) : 19

(A) NC1(CCN2C(=O)S/C(=C\c3ccc4c(cnn4Cc4ccc(C(F)(F)F)cc4C(F)(F)F)c3)C2=O)CCOCC1
(B) NC[C@H]1CC[C@H](CN2C(=O)S/C(=C\c3ccc4c(cnn4Cc4ccc(Cl)cc4C(F)(F)F)c3)C2=O)CC1
(C) O=C1S/C(=C\c2ccc3c(cnn3Cc3ccc(Cl)cc3C(F)(F)F)c2)C(=O)N1N1CCOCC1
(D) CN(CCN1C(=O)S/C(=C\c2ccc3c(cnn3Cc3ccc(Cl)cc3C(F)(F)F)c2)C1=O)C(=O)C(F)(F)F
Reorder the items by EC50, least to greatest. The response must list the labels following the requested ordering. C, D, B, A

(a) N#Cc1ccc(Cn2ncc3cc(/C=C4\SC(=O)N(CC(=O)O)C4=O)ccc32)c(C(F)(F)F)c1
(b) CN1CCN(N2C(=O)S/C(=C\c3ccc4c(cnn4Cc4ccc(C(F)(F)F)cc4C(F)(F)F)c3)C2=O)CC1
Look at a and b . Which one has the lower recorded EC50 number? Returns: label corresponding to the selected item. b

(a) CN1CC[C@H](N2C(=O)S/C(=C\c3ccc4c(cnn4Cc4ccc(Cl)cc4C(F)(F)F)c3)C2=O)[C@@H](F)C1
(b) NC(=O)CN1CCN(N2C(=O)S/C(=C\c3ccc4c(cnn4Cc4ccc(Cl)cc4C(F)(F)F)c3)C2=O)CC1
(c) O=C1S/C(=C\c2ccc3c(cnn3Cc3ccc(Cl)cc3C(F)(F)F)c2)C(=O)N1CCNS(=O)(=O)CCl
(d) O=C(O)C(Cc1c[nH]cn1)N1C(=O)S/C(=C\c2ccc3c(cnn3Cc3ccc(Cl)cc3C(F)(F)F)c2)C1=O (stereo not shown)
Put the entries in order of EC50, starting with the largest number. The response must list the labels following the requested ordering. d, c, a, b
(d: 76 nM, c: 39 nM, a: 22 nM, b: 11 nM)

(I) O=C(O)c1ccc(CN2C(=O)S/C(=C\c3ccc4c(cnn4Cc4ccc(Cl)cc4C(F)(F)F)c3)C2=O)o1
(II) COC(=O)N1CCN(C(=O)CN2C(=O)S/C(=C\c3ccc4c(cnn4Cc4ccc(Cl)cc4C(F)(F)F)c3)C2=O)S1(=O)=O
Look at I and II . Which one has the lower recorded EC50 number? Returns: label corresponding to the selected item. I
(I: 15 nM, II: 53 nM)

(A) O=C1S/C(=C\c2ccc3c(cnn3Cc3ccc(Cl)cc3C(F)(F)F)c2)C(=O)N1Cc1ncc[nH]1
(B) CN1CCC(CN2C(=O)S/C(=C\c3ccc4c(cnn4Cc4ccc(Cl)cc4C(F)(F)F)c3)C2=O)CC1
(C) [2H]C([2H])([2H])N1CCC(F)(CN2C(=O)S/C(=C\c3ccc4c(cnn4Cc4ccc(Cl)cc4C(F)(F)F)c3)C2=O)CC1
(D) COc1ccc(Cn2ncc3cc(/C=C4\SC(=O)N(CCN5C[C@@H](C)O[C@@H](C)C5)C4=O)ccc32)c(C(F)(F)F)c1
Put the entries in order of EC50, starting with the largest number. The response must list the labels following the requested ordering. C, B, A, D

(A) CC[C@H](N)CN1C(=O)S/C(=C\c2ccc3c(cnn3Cc3ccc(Cl)cc3C(F)(F)F)c2)C1=O
(B) NS(=O)(=O)NCCN1C(=O)S/C(=C\c2ccc3c(cnn3Cc3ccc(Cl)cc3C(F)(F)F)c2)C1=O
Field: entry with larger EC50 (options A / B ). Returns: label corresponding to the selected item. B
(B: 40 nM, A: 17 nM)

(A) O=C1S/C(=C\c2ccc3c(cnn3Cc3ccc(Cl)cc3C(F)(F)F)c2)C(=O)N1[C@H]1CCNC1
(B) O=C1OCCN1CCN1C(=O)S/C(=C\c2ccc3c(cnn3Cc3ccc(Cl)cc3C(F)(F)F)c2)C1=O
(C) COc1nn(Cc2ccc(Cl)cc2C(F)(F)F)c2ccc(/C=C3\SC(=O)N(C4CCNCC4)C3=O)cc12
Put the entries in order of EC50, starting with the largest number. The response must list the labels following the requested ordering. C, A, B
(C: 95 nM, A: 55 nM, B: 5 nM)

(1) Nc1nc(CN2C(=O)S/C(=C\c3ccc4c(cnn4Cc4ccc(Cl)cc4C(F)(F)F)c3)C2=O)c[nH]1
(2) O=C(O)CN1C(=O)S/C(=C\c2ccc3c(ccn3Cc3ccc(F)cc3C(F)(F)F)c2)C1=O
Look at 1 and 2 . Which one has the lower recorded EC50 number? Returns: label corresponding to the selected item. 1
(1: 46 nM, 2: 1020 nM)
